Target: T1, human nectin-4 protein expressed on the surface of cells (human, UniProt Q96NY8 32-510)
T1 sequence: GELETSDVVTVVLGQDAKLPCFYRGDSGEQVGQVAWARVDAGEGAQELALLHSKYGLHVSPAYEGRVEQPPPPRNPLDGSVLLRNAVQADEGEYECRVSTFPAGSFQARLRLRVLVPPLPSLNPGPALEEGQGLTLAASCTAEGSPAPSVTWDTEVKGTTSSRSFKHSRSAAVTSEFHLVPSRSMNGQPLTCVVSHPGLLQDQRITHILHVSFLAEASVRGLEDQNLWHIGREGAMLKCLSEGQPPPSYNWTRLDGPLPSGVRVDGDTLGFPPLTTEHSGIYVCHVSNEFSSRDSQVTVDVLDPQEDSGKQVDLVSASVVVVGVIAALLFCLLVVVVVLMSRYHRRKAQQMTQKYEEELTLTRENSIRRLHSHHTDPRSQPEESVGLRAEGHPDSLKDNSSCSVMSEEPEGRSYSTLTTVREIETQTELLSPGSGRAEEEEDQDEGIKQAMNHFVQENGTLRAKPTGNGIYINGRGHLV
Test: cell-based or functional assay
reportedMetric: Cell kill IC50, HekNectin4

binder: Nectin-4 5D9 VH2/VL4 (antibody, V domains shown, Humanized; also called 5D9 VH variant 2 / 5D9 VL variant 4) VH: QVQLQESGPGLVKPSETLSLTCTVSGFSITNYGVHWIRQPPGKGLEWLGVIWSGGSTDYNASLVSRVTISRDTSKSQFFLKLNSVQADDTAVYYCARSGKWYYFDYWGQGTTVTVSS VL: DIQMTQSPSSLSASVGDRVTITCRASENIYSNLAWYQQKPGKAPKLLVYAATNLADGVPSRFSGSGSGTDYTLTISSLQPEDFATYYCQHFWGTPTFGGGTKVEIK
reportedMetric: Cell kill IC50, HekNectin4
endpointResult: 17800 pM
//
binder: Nectin-4 5D9 VH1/VL1 (antibody, V domains shown, Humanized; also called 5D9 VH variant 1 / 5D9 VL variant 1) VH: QVQLKESGPGLVQPSETLSLTCTVSGFSITNYGVHWIRQSPGKGLEWLGVIWSGGSTDYNAAFVSRVTISRDNSKSQVFFKLNSVQADDTAVYYCARSGKWYYFDYWGQGTTVTVSS VL: DIQMTQSPASLSASVGDTVTITCRASQNIYSNLAWYQQKQGKSPQLLVYAATNLADGVPSRFSGSGSGTQYTLKINSLQSEDFGTYYCQHFWGTPTFGGGTKVEIK
reportedMetric: Cell kill IC50, HekNectin4
endpointResult: 249 pM
//
binder: Nectin-4 5D9 VH4/VL2 (antibody, V domains shown, Humanized; also called 5D9 VH variant 4 / 5D9 VL variant 2) VH: QVQLQQSGPGLVKPSETLSLTCTVSGFSLTNYGVHWVRQPPGKGLEWLGVIWSGGSTDYNPSLKSRLTISRDTSKNQVSFKMSSVTAADTAVYYCARSGKWYYFDYWGQGTLVTVSS VL: DIQMTQSPSSLSASVGDTVTITCRASQNIYSNLAWYQQKQGKAPKLLVYAATNLADGVPSRFSGSGSGTDFTLKINSLQPEDFATYYCQHFWGTPTFGGGTKVEIK
reportedMetric: Cell kill IC50, HekNectin4
endpointResult: 290 pM

Hello, the source for this data is patent US20250101098A1, in case you need it.
